Below: a set of entries, each annotated with reported Change In Mass (%).
Test: Hygroscopicity test, condition 3 (dynamic vapor sorption, 0 to 90 to 0% RH)
Format: physicochemical
Details: DVS, 25° C., RH 70%
Procedure: Measurement were taken from 0 to 90 to 0% RH at 25° C. with 10% RH per step with equilibration set to dm/dt+0.01%/min for 10 min or 180 min/step.
MEASUREMENT TYPE: Change In Mass (%)

compound="CNCC(=O)O.CNCC(=O)O.O=C(O)C(O)C(O)C(=O)O (racemic) [N-MG/DL-TA = 2/1]" observed=3.12
compound="CNCC(=O)O [N-MG, N-methylglycine, reference compound]" observed=38.6
compound="CNCC(=O)O.CNCC(=O)O.O=C(O)C(O)C(O)C(=O)O [N-methylglycine:D-tartaric acid 2:1 co-crystal]" observed=0.31
compound="CNCC(=O)O.CNCC(=O)O.O=C(O)C(O)C(O)C(=O)O [N-methylglycine:L-tartaric acid 2:1 co-crystal]" observed=0.18
